# MEASUREMENT NOTES: qHTS Validation assay for Inhibitors of Plasmodium falciparum Dd2 growth in vitro; note: nearly all actives have a fitted effect of over 70% in size
# EXPERIMENTAL CONTEXT: P. falciparum Dd2 in RBCs, SYBR Green growth, 72 h; series mostly up to 28.7 µM
The campaign covered roughly 4,100 compounds. About 1,600 (39%) were called active. Inconclusive results (about 25%) are left out. Calls come from the whole dose curve; as a rule, active = well fitted inhibition curve with a large enough effect; inconclusive = small, poorly fitted or top-dose-only effect; inactive = no such curve, though single readings can be large or run the other way. Some of the results follow.
Thanks in advance; please answer with one of these: active, inactive

Illustrative cases are given below, each with its answer.
CCCN1C(CC(C)C)=NS(=O)(=O)c2cc(NC(=O)c3ccco3)ccc21; active
COc1ccc(C(=O)N2CCC(Cc3nc(-c4cccnc4)n[nH]3)C2)cc1F (stereo not given); inactive
CNC(=O)[C@@H]1CN(C(=O)c2cc(OC)cc(OC)c2)C[C@H]1COC; inactive
Cc1ccnc2nc(C(=O)Nc3cc(Cl)ccc3N3CCOCC3)nn12; active
CCOC(=O)c1c(NC(=O)C[n+]2ccc(N(C)C)cc2)sc(C)c1C; active
O=C1N(c2ccccc2C(F)(F)F)O[C@@]1(c1ccccc1)C1CCCC1; active

[ask] Record lookup: outcome of this test for Cc1cc[n+](CC(=O)Nc2cccc(C)c2)cc1 ?
[reply] inactive

[ask] Record lookup: outcome of this test for CC1CCc2cc(F)ccc2N1C(=O)CSc1nnc2c(n1)[nH]c1ccc(F)cc12 (stereo not given) ?
[reply] active

[ask] Record lookup: outcome of this test for Cc1ccc(OCc2nc(C3CN(C(=O)c4ccc5nc[nH]c5c4)C3)no2)cc1 ?
[reply] inactive

[ask] Record lookup: outcome of this test for COCCNC(=O)C[C@@H]1C[C@H]2O[C@H](CN)[C@@H](O)[C@H]2O1 ?
[reply] inactive

Data origin: PubChem BioAssay AID1347416
